recorded_metric: melting point

// worked examples, melting point included
Please fill in: melting point reported for CC1=C(C(=O)OCCOc2ccccc2)C(c2ccccc2C(F)(F)F)c2c(ccnc2OCC(C)C)N1 (stereo not given) = 108 to 109 °C

So, CC(C)C(=CC(CNC(=O)c1cccnc1)=NO)C(C)[N+](=O)[O-] (stereo not given) ? Its melting point was 132 to 135 °C

The reported value for O=C(O)c1cccnc1C(=O)c1ccccc1 in terms of melting point is 115 to 121 °C

Summary for this compound, CO[C@@H](Cc1ccc(C#CCOc2ccc(-c3ccccc3)cc2)cc1)C(=O)O : melting point is 111 to 112 °C

Continuing:
Per the records, this compound ( Cc1cc(C)cc(-c2nc(N)sc2-c2ccnc(NC(=O)c3ccccc3)c2)c1 ) has melting point equal to 120 to 123 °C
